tested on: 227483-062-R1-J1-PDC complex spheroids with HUVEC/MSC, viability; test: Anticancer human tumor 227483-062-R1-J1-PDC patient-derived pancreatic carcinoma cell line growth inhibition [CLK]; details: second compound 1 µM; first compound 0.0316 µM; hits give low values
Each entry below lists one item and its recorded viability, T/C value.
Give the value in % but do not write % after it.

Some compounds with recorded viability, T/C:
compound	measurement_name	numeric_readout
CCN1CCN(Cc2ccc(Nc3ncc(F)c(-c4cc(F)c5nc(C)n(C(C)C)c5c4)n3)nc2)CC1 + CN1CCN(c2cc(C(=O)Nc3cc4cc(-c5cnn(C)c5)ccc4cn3)ccn2)CC1	viability, T/C	2.83
CCCS(=O)(=O)Nc1ccc(F)c(C(=O)c2c[nH]c3ncc(-c4ccc(Cl)cc4)cc23)c1F + CN1CCN(c2cc(C(=O)Nc3cc4cc(-c5cnn(C)c5)ccc4cn3)ccn2)CC1	viability, T/C	4.51
CC(Nc1ccc2c(c1)OCCn1cc(N3C(=O)OCC3C(F)F)nc1-2)C(N)=O (stereo not given) + CNC(=O)c1ccc(Nc2nc(OC3CCCC3)c3c(-c4ccc5nc(C)oc5c4)c[nH]c3n2)c(OC)c1	viability, T/C	60.6

Asked: What measured viability, T/C is associated with CC1(C)CCC(CN2CCN(c3ccc(C(=O)NS(=O)(=O)c4ccc(NCC5CCOCC5)c([N+](=O)[O-])c4)c(Oc4cnc5[nH]ccc5c4)c3)CC2)=C(c2ccc(Cl)cc2)C1 + CNC(=O)c1ccc(Nc2nc(OC3CCCC3)c3c(-c4ccc5nc(C)oc5c4)c[nH]c3n2)c(OC)c1 on 227483-062-R1-J1-PDC complex spheroids with HUVEC/MSC, viability?
Given back: 70.6

Asked: Record: Cn1ncnc1[C@H]1c2n[nH]c(=O)c3cc(F)cc(c23)N[C@@H]1c1ccc(F)cc1 + CNC(=O)c1ccc(Nc2nc(OC3CCCC3)c3c(-c4ccc5nc(C)oc5c4)c[nH]c3n2)c(OC)c1
Given back: 71.9

###

test system: 227483-062-R1-J1-PDC complex spheroids with HUVEC/MSC, viability; experiment: Anticancer human tumor 227483-062-R1-J1-PDC cell line growth inhibition [CLK]; conditions: second compound 0.0316 µM; first compound 0.1 µM; hits give low values;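 note: spheroids exposed to compounds for seven days before readout; percent of DMSO vehicle control luminescence as 100% viability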
This section presents molecules with their documented viability, T/C values.
Quick note: give the figure in %, leave out the unit.

Example molecules with recorded viability, T/C:
molecule	viability, T/C / %
COc1ccc([C@@H](O)c2cc(-c3ncnc4cc(N5CCOCC5)ccc34)c(F)cc2Cl)nn1 + CNC(=O)c1ccc(Nc2nc(OC3CCCC3)c3c(-c4ccc5nc(C)oc5c4)c[nH]c3n2)c(OC)c1	85.9
CCCS(=O)(=O)Nc1ccc(F)c(C(=O)c2c[nH]c3ncc(-c4ccc(Cl)cc4)cc23)c1F + CNC(=O)c1ccc(Nc2nc(OC3CCCC3)c3c(-c4ccc5nc(C)oc5c4)c[nH]c3n2)c(OC)c1	94
C=C(F)C(=O)N1CCN(c2nc(OCC3CCCN3C)nc3c2CCN(c2cccc4cccc(Cl)c24)C3)CC1CC#N (centres undefined) + CNC(=O)c1ccc(Nc2nc(OC3CCCC3)c3c(-c4ccc5nc(C)oc5c4)c[nH]c3n2)c(OC)c1	98

Please find the next molecule below.
Asked: Give the measured viability, T/C of CC(=O)O[C@H]1C(=O)[C@@]2(C)[C@H]([C@H](OC(=O)c3ccccc3)[C@]3(O)C[C@H](OC(=O)[C@H](O)[C@@H](NC(=O)c4ccccc4)c4ccccc4)C(C)=C1C3(C)C)[C@]1(OC(C)=O)CO[C@@H]1C[C@@H]2O + CNC(=O)c1ccc(Nc2nc(OC3CCCC3)c3c(-c4ccc5nc(C)oc5c4)c[nH]c3n2)c(OC)c1 .
Given back: 27.1

###

system: 227483-062-R1-J1-PDC complex spheroids with HUVEC/MSC, viability; assay: Anticancer human tumor 227483-062-R1-J1-PDC cell line growth inhibition [CLK]; details: second compound 0.0316 µM; first compound 0.03 µM; hits give low values;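 note: spheroids exposed to compounds for seven days before readout; percent of DMSO vehicle control luminescence as 100% viability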
measurement_name: viability, T/C (%)
Give the value in % but do not write % after it.

compound	result_unit	viability, T/C
CC(C)CC(NC(=O)C(Cc1ccccc1)NC(=O)c1cnccn1)B(O)O (stereo unspecified) + CN1CCN(c2cc(C(=O)Nc3cc4cc(-c5cnn(C)c5)ccc4cn3)ccn2)CC1	%	1.12
NC(=O)C(=Cn1cnc(-c2cc(C(F)(F)F)cc(C(F)(F)F)c2)n1)c1cncnc1 + CN1CCN(c2cc(C(=O)Nc3cc4cc(-c5cnn(C)c5)ccc4cn3)ccn2)CC1	%	105
C=CC(=O)Nc1cc(Nc2nccc(-c3cn(C)c4ccccc34)n2)c(OC)cc1N(C)CCN(C)C + CNC(=O)c1ccc(Nc2nc(OC3CCCC3)c3c(-c4ccc5nc(C)oc5c4)c[nH]c3n2)c(OC)c1	%	98.6

Asked: Reported viability, T/C, compound CC(C)CC(NC(=O)C(Cc1ccccc1)NC(=O)c1cnccn1)B(O)O (stereo unspecified) + CNC(=O)c1ccc(Nc2nc(OC3CCCC3)c3c(-c4ccc5nc(C)oc5c4)c[nH]c3n2)c(OC)c1 : ____
Given back: 1.29

Asked: Could you do the same for NC(=O)C(=Cn1cnc(-c2cc(C(F)(F)F)cc(C(F)(F)F)c2)n1)c1cncnc1 + CNC(=O)c1ccc(Nc2nc(OC3CCCC3)c3c(-c4ccc5nc(C)oc5c4)c[nH]c3n2)c(OC)c1 , please?
Given back: 81.8

Asked: Further, for C=CC(=O)Nc1cc(Nc2nccc(-c3cn(C)c4ccccc34)n2)c(OC)cc1N(C)CCN(C)C + CN1CCN(c2cc(C(=O)Nc3cc4cc(-c5cnn(C)c5)ccc4cn3)ccn2)CC1 ?
Given back: 99.1

###

system: 227483-062-R1-J1-PDC complex spheroids with HUVEC/MSC, viability; assay: Anticancer human tumor 227483-062-R1-J1-PDC cell line growth inhibition [CLK]; details: second compound 0.0316 µM; first compound 0.0316 µM; hits give low values;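 note: spheroids exposed to compounds for seven days before readout; percent of DMSO vehicle control luminescence as 100% viability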
measurement_name: viability, T/C

Examples with their reported viability, T/C follow.
compound	result
COC1C=CCC(C)C(C)S(=O)(=O)NC(=O)c2ccc3c(c2)N(CC2CCC21)CC1(CCCc2cc(Cl)ccc21)CO3 (stereo not given) + CNC(=O)c1ccc(Nc2nc(OC3CCCC3)c3c(-c4ccc5nc(C)oc5c4)c[nH]c3n2)c(OC)c1	84%
C=CC(=O)N1CCN(c2nc(=O)n(-c3c(C)ccnc3C(C)C)c3nc(-c4c(O)cccc4F)c(F)cc23)C(C)C1 (stereo not given) + CNC(=O)c1ccc(Nc2nc(OC3CCCC3)c3c(-c4ccc5nc(C)oc5c4)c[nH]c3n2)c(OC)c1	107%

Asked: What value of viability, T/C has been reported for the following compound? C=C(F)C(=O)N1CCN(c2nc(OCC3CCCN3C)nc3c2CCN(c2cccc4cccc(Cl)c24)C3)CC1CC#N (stereo not given) + CNC(=O)c1ccc(Nc2nc(OC3CCCC3)c3c(-c4ccc5nc(C)oc5c4)c[nH]c3n2)c(OC)c1
Given back: 116%

Asked: How about CC(=O)O[C@H]1C(=O)[C@@]2(C)[C@H]([C@H](OC(=O)c3ccccc3)[C@]3(O)C[C@H](OC(=O)[C@H](O)[C@@H](NC(=O)c4ccccc4)c4ccccc4)C(C)=C1C3(C)C)[C@]1(OC(C)=O)CO[C@@H]1C[C@@H]2O + CNC(=O)c1ccc(Nc2nc(OC3CCCC3)c3c(-c4ccc5nc(C)oc5c4)c[nH]c3n2)c(OC)c1 ?
Given back: 29.7%

Asked: Let us now turn to COc1cccc2c1C(=O)c1c(O)c3c(c(O)c1C2=O)CC(O)(C(=O)CO)CC3OC1CC(N)C(O)C(C)O1 (stereo not given) + CN1CCN(c2cc(C(=O)Nc3cc4cc(-c5cnn(C)c5)ccc4cn3)ccn2)CC1
Given back: 84.1%

###

test system: 227483-062-R1-J1-PDC complex spheroids with HUVEC/MSC, viability; test: Anticancer human tumor 227483-062-R1-J1-PDC cell line growth inhibition [CLK]; details: second compound 1 µM; first compound 0.0316 µM; active = viability on the fitted dose curve at most 10% of control; inactive = the rest;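 note: spheroids exposed to compounds for seven days before readout; percent of DMSO vehicle control luminescence as 100% viability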
Result category, one only: y for active, n for inactive

Look over these answered cases.
compound	assigned_category
COc1cccc2c1C(=O)c1c(O)c3c(c(O)c1C2=O)CC(O)(C(=O)CO)CC3OC1CC(N)C(O)C(C)O1 (stereo not given) + CNC(=O)c1ccc(Nc2nc(OC3CCCC3)c3c(-c4ccc5nc(C)oc5c4)c[nH]c3n2)c(OC)c1	n
CCN1CCN(Cc2ccc(Nc3ncc(F)c(-c4cc(F)c5nc(C)n(C(C)C)c5c4)n3)nc2)CC1 + CNC(=O)c1ccc(Nc2nc(OC3CCCC3)c3c(-c4ccc5nc(C)oc5c4)c[nH]c3n2)c(OC)c1	n

Asked: Could you please tell me the result logged for COc1ccc([C@@H](O)c2cc(-c3ncnc4cc(N5CCOCC5)ccc34)c(F)cc2Cl)nn1 + CN1CCN(c2cc(C(=O)Nc3cc4cc(-c5cnn(C)c5)ccc4cn3)ccn2)CC1 in this assay?
Given back: y

Asked: Next up: Nc1ccccc1NC(=O)c1ccc(CNC(=O)OCc2cccnc2)cc1 + CN1CCN(c2cc(C(=O)Nc3cc4cc(-c5cnn(C)c5)ccc4cn3)ccn2)CC1
Given back: y

Asked: Check CCc1c2c(nc3ccc(O)cc13)-c1cc3c(c(=O)n1C2)COC(=O)[C@]3(O)CC + CNC(=O)c1ccc(Nc2nc(OC3CCCC3)c3c(-c4ccc5nc(C)oc5c4)c[nH]c3n2)c(OC)c1 too.
Given back: n
